- System under test: Lysine-specific demethylase 4A (Homo sapiens)
- Test details: qHTS Assay for Inhibitors of JMJD2A-Tudor Domain; further: nearly all actives have a fitted effect of over 50% in size; further: potency means the concentration at half of the fitted maximal effect
- Reported conditions: AlphaScreen JMJD2A-Tudor / H3K4me3 peptide binding; series mostly up to 114 µM
Screen size: about 390,000 compounds; about 17,000 (4.4%) were called active. Not shown: some 8% with an inconclusive outcome. Shown is part of a subset that was picked to be rich in actives.
Parameter: Potency

Solved cases (5 shown):
{"Molecular string": "Cc1cc(C)n2nc(SCC(=O)NC(=O)NCc3ccco3)nc2n1", "Potency": "20 µM (active)"}
{"Molecular string": "COc1ccc(OC)c(-c2csc(NC(=O)C3=NNC(=O)CC3)n2)c1", "Potency": "inactive"}
{"Molecular string": "O=C(CNc1ccc(F)cc1F)NC(=O)NCc1ccco1", "Potency": "inactive"}
{"Molecular string": "Cc1cc(NS(=O)(=O)c2ccc(NC(=O)c3ccccc3C)cc2)nc(C)n1", "Potency": "inactive"}
{"Molecular string": "COc1ccc(OC)c(Nc2nc(-c3ccc(O)c(O)c3)cs2)c1", "Potency": "10 µM (active)"}

As a next step, examine the compound that follows.
Q: Bench note: what Potency did O=C(CSc1n[nH]c(-c2ccccc2)n1)N1CCCCC1 show?
A: inactive

* * *

- System under test: Lysine-specific demethylase 4A (Homo sapiens) (UniProt O75164)
- Sequence (O75164 whole entry, looked up, the tested form may be a part): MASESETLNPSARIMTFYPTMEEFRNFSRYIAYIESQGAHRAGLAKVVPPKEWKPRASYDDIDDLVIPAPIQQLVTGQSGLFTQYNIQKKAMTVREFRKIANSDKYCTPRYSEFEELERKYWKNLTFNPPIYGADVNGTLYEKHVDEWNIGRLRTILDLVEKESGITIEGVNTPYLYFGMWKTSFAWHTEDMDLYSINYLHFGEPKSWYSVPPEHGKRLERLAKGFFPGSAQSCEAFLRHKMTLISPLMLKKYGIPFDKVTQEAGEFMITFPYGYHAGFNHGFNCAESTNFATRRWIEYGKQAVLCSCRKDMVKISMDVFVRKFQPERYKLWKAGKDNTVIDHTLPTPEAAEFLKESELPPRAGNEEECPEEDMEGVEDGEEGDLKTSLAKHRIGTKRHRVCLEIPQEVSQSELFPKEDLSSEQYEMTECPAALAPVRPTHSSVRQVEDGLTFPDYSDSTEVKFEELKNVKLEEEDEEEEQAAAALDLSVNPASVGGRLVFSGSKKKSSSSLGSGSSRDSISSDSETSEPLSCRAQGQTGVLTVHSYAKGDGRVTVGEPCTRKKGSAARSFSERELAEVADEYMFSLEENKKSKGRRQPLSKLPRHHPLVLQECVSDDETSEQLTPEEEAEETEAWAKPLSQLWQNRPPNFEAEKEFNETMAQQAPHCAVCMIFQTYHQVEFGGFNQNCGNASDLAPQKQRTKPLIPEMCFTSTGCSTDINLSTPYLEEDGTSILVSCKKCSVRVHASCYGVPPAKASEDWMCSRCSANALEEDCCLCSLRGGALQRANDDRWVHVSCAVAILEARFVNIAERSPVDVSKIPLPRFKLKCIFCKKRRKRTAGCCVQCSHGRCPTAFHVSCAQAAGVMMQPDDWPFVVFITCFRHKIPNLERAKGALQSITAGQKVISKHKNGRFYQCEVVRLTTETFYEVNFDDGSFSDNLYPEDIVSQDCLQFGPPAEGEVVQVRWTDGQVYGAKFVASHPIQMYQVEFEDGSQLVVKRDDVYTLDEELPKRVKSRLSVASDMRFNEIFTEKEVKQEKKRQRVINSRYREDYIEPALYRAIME
- Test details: qHTS Assay for Inhibitors of JMJD2A-Tudor Domain; further: nearly all actives have a fitted effect of over 50% in size
- Reported conditions: AlphaScreen JMJD2A-Tudor / H3K4me3 peptide binding; series mostly up to 114 µM
The whole screen tested about 390,000 compounds, of which about 17,000 (4.4%) were called active. Inconclusive results (about 8%) are left out. The call rests on the fitted dose curve; in most records, active means well fitted inhibition curve with a large enough effect; inconclusive means small, poorly fitted or top-dose-only effect; inactive means no such curve, though single readings can be large or run the other way. What follows is part of a selection rich in actives, with near analogues and random picks from the rest.
Output constraint: value belongs to active, inactive

Q: Identify the outcome logged in this assay for the compound shown: CC1=C(C)CC2C(=O)N(c3cccc4ccccc34)C(=O)C2C1 (centres undefined)
A: active

Q: Call for entry CCOc1cccc(NC(=O)CSc2ncc(-c3ccc(Cl)cc3)[nH]2)c1 :
A: inactive

Q: For O=C1C(=O)N(CCN2CCOCC2)C(c2cccc(Cl)c2)/C1=C(/O)c1ccc2c(c1)OCO2 (centres undefined) , which call appears in the assay record?
A: inactive

Q: Please let me know the test result on file for CCOc1cc(-c2nnc(SCC(=O)NC3CCCC3)nc2-c2ccc(OC)c(OCC)c2)ccc1OC .
A: inactive

Q: Recorded test call requested for CCOCCCNC(=O)c1c(NC(=O)c2nc(SC)ncc2Cl)sc2c1CCCC2
A: inactive

Q: Recorded test outcome, item CC1Cc2cc(/C(O)=C3\C(=O)C(=O)N(Cc4cccnc4)C3c3ccccc3F)ccc2O1 (centres undefined)
A: inactive

Q: Each compound tested received a call. Report the one for COc1cc2nc(SCC(=O)Nc3ccccc3F)n3nc(-c4ccccc4)nc3c2cc1OC .
A: inactive

Q: Each compound tested received a call. Report the one for CC1Cc2cc(/C(O)=C3\C(=O)C(=O)N(CCN4CCOCC4)C3c3ccccc3F)ccc2O1 (centres undefined) .
A: active

Q: What outcome does the record of this test show for CCc1ccc(CNCc2c(C(=O)O)n(Cc3ccc(F)cc3Cl)c3cc(OC)ccc23)cc1 ?
A: inactive

* * *

- System under test: Lysine-specific demethylase 4A (Homo sapiens) (UniProt O75164)
- Test details: qHTS Assay for Inhibitors of JMJD2A-Tudor Domain; further: nearly all actives have a fitted effect of over 50% in size
- Reported conditions: AlphaScreen JMJD2A-Tudor / H3K4me3 peptide binding; series mostly up to 114 µM
About 17,000 (4.4%) of roughly 390,000 compounds were called active. Not shown: some 8% with an inconclusive outcome. The call rests on the fitted dose curve; in most records, active means well fitted inhibition curve with a large enough effect; inconclusive means small, poorly fitted or top-dose-only effect; inactive means no such curve, though single readings can be large or run the other way. Only a selection was taken, and actives are over-represented in it overall.
The categories you may choose from are yes (active), no (inactive)

{"Molecule": "CNc1nc(=O)n(C2CCCO2)cc1C (configuration not stated)", "System under test": "Lysine-specific demethylase 4A (Homo sapiens) (UniProt O75164)", "Discrete label": "no"}
{"Molecule": "COc1ccc(Cl)cc1NC(=O)CSc1nc(=O)[nH]c2c1CCCC2", "System under test": "Lysine-specific demethylase 4A (Homo sapiens) (UniProt O75164)", "Discrete label": "no"}
{"Molecule": "CC(NC(=O)c1ccco1)C(=O)Nc1nc(-c2ccccn2)cs1 (configuration not stated)", "System under test": "Lysine-specific demethylase 4A (Homo sapiens) (UniProt O75164)", "Discrete label": "yes"}
{"Molecule": "Cc1cccc(-n2ncc(C(=O)N3CCC(C)CC3)c2C2CCN(C(=O)OC(C)(C)C)CC2)c1", "System under test": "Lysine-specific demethylase 4A (Homo sapiens) (UniProt O75164)", "Discrete label": "no"}
{"Molecule": "O=C(CSc1nnc(-c2ccncc2)n1-c1ccccc1)Nc1ccc(Cl)c(Cl)c1", "System under test": "Lysine-specific demethylase 4A (Homo sapiens) (UniProt O75164)", "Discrete label": "no"}

Q: Hello, I am checking results. What call was entered for COc1ccc(N2CCN(C(=O)CSCc3nc(-c4ccccc4Cl)oc3C)CC2)cc1 ?
A: yes

Q: Which result was noted for this molecule in the test: Cc1ccc2c(=O)c(C(=O)c3ccc(Cl)cc3)cn(CC(=O)NC3CCCCC3)c2n1
A: no

Q: Please state the recorded outcome for this molecule: Cc1c(-c2cccc(NC(=O)C(C)(C)C)c2)nc2ncccn12
A: no

Q: Hello, I am checking results. What call was entered for CCc1cccc(C)c1Nc1c(-c2ccc(N(C)C)cc2)nc2ncccn12 ?
A: yes

Q: Given O=C(NCc1ccc(Cl)cc1)c1ccc2c(c1)nnn2C1CCCC1 , state the outcome it received in this test.
A: no

Q: Write down the call the test reported for this molecule. Item: Cc1ccccc1Nc1c(-c2ccccc2)nc2ncccn12
A: no

Q: Tell me the assay call for CCOC(=O)c1c(S(=O)(=O)N2CCCC(C(=O)NCc3cccc(C)c3)C2)c(C)n(C)c1C (configuration not stated) please.
A: no

Q: Identify the outcome logged in this assay for the molecule shown: CC(=O)Nc1ccccc1NC(=O)c1cc(C)cc(C)c1
A: yes

Q: Dear all, I need the recorded test outcome for COc1ccc(CNC(=O)CSCc2nc(-c3ccccc3F)oc2C)cc1 , thank you.
A: no

Q: For Cc1csc2nc(COC(=O)c3ccc(NC(=O)COc4ccccc4F)cc3)cc(=O)n12 , what call appears in the results of this test?
A: no

Q: What call does the record list for O=C(COc1ccccc1F)Nc1nc(-c2ccccn2)cs1 ?
A: yes

Q: How did this test come out for CCSc1nnc2c(n1)OC(c1ccc(OCC(=O)O)cc1)Nc1ccccc1-2 (configuration not stated) ?
A: no

Q: Short answer needed: outcome of this test for COc1ccc(N2CCN(C(=O)CN3C(=O)COc4ccccc43)CC2)cc1 ?
A: no

Q: Per the records of this test, what outcome belongs to Cc1ccccc1C(=O)Nc1ccccc1NC(=O)c1ccccc1C ?
A: no

Q: What did this assay record as the result for Nc1ccn(C2CC(O)C(CO)O2)c(=O)n1 (configuration not stated) ?
A: no

Q: In this assay, the call recorded for Cc1ccc(Cn2cc(CCC(=O)NCc3ccc(OC(C)C)cc3)c3ccccc32)cc1 was what?
A: no

Q: Per the records of this test, what outcome belongs to O=C(Cn1c(-c2cccs2)cc2ccccc21)NCCc1ccc(Cl)cc1 ?
A: no
